In this section, each of the molecules is paired with its reported inhibition.
target: Cannabinoid receptor (Rattus norvegicus) (UniProt Q9QZN9+P20272); test: Compound was evaluated for the inhibition of [3H]WIN-55212-2 binding in rat cerebellum membranes at the concentration 1000 nM; type: cell membranes; details: Membrane
Sequence (P20272 whole entry, looked up): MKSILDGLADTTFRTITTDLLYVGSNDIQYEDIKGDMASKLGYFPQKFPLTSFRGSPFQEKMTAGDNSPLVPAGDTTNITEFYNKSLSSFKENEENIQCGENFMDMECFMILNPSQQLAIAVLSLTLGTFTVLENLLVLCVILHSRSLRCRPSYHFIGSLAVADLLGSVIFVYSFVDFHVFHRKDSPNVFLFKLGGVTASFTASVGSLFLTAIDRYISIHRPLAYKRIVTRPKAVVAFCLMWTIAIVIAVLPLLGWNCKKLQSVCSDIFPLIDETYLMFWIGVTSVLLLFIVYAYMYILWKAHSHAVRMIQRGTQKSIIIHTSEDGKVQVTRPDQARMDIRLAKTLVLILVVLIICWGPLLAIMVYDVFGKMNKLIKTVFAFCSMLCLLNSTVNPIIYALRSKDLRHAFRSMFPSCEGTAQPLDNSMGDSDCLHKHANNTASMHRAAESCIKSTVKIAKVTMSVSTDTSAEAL
Sequence (Q9QZN9 whole entry, looked up): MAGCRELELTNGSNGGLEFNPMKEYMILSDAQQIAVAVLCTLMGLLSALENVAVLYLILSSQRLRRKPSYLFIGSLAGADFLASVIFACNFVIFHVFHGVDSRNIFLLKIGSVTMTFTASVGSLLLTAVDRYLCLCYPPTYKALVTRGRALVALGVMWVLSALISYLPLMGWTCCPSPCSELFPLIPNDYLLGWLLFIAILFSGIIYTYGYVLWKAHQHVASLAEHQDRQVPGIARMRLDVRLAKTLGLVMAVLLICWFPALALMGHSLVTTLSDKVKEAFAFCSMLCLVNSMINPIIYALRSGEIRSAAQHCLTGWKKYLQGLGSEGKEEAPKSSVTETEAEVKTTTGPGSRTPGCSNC
Numeric only. Scale: %

Here is how some molecules turned out for inhibition.
Lookup result for COc1ccc(C(=O)c2c(C)n(CC3CN(C)CCN3C)c3ccccc23)cc1 (stereo not given) ; measured inhibition: -8

Value of inhibition reported for the molecule COc1ccc(C(=O)c2c(C)n(CC3C[S+]([O-])CCN3C)c3ccccc23)cc1 (stereo not given) is -10

inhibition reading for COc1ccc(C(=O)c2c(C)n(CC3CSCCN3C)c3ccccc23)cc1 (stereo not given) : 40

Record COc1ccc(C(=O)c2c(C)n(C[C@H]3CCCN3C)c3ccccc23)cc1 , field inhibition: 7

More entries:
Short answer for COc1ccc(C(=O)c2c(C)n(CC3CCCN3C)c3ccccc23)cc1 (stereo not given) : inhibition was 53

====

target: Cannabinoid receptor (Rattus norvegicus, UniProt Q9QZN9+P20272); assay: Compound was evaluated for the inhibition of [3H]WIN-55212-2 binding in rat cerebellum membranes; type: cell membranes, Membrane
quantityKind: IC50
Note to self: number, then unit, no commentary.

Past entries and their recorded results:
GET /value?item= Cc1c(C(=O)c2cccc3ccccc23)c2ccccc2n1CC1CCCN1C (stereo not given) &field=IC50 returns 6.5 nM

Lab note: measured IC50 of O=C(c1cccc2ccccc12)c1cn(CC2CCCCN2)c2ccccc12 (stereo not given) was 6.6 nM

// IC50 lookup, compound = Cc1c(C(=O)c2cccc3ccccc23)c2ccccc2n1CC1CCCCN1C (stereo not given) , result: 5.4 nM

---
// recorded IC50 for CN1CCCCC1Cn1cc(C(=O)c2cccc3ccccc23)c2ccccc21 (stereo not given) : 1.22 nM

====

target: Cannabinoid receptor (Rattus norvegicus, UniProt Q9QZN9+P20272); assay: Compound was evaluated for the inhibition of [3H]WIN-55212-2 binding in rat cerebellum membranes; format: cell membranes, Membrane
Under this convention, TRUE denotes IC50 strictly below 10 nM and FALSE denotes IC50 at or above 10 nM.

# TODO verify IC50 < 10 nM strictly for this molecule: COc1ccc(C(=O)c2c(C)n(C[C@@H]3CCCN3C)c3ccccc23)cc1
FALSE

Item COc1ccc(C(=O)c2cn(CC3CCCCN3C)c3ccccc23)cc1 (stereo unspecified) : IC50 beneath 10 nM, strictly?
TRUE

Determine if O=C(c1cccc2ccccc12)c1cn(CCN2CCOCC2)c2ccccc12 shows IC50 strictly lower than 10 nM.
TRUE

Please indicate whether the reported IC50 of COc1ccc(C(=O)c2c(C)n(CC3CCCCN3C)c3ccccc23)cc1 (stereo unspecified) is strictly below 10 nM.
FALSE

Is IC50 strictly under 10 nM for the entry CN1CCOCC1Cn1cc(C(=O)c2cccc3ccccc23)c2ccccc21 (stereo unspecified) ?
TRUE

Further cases:
Item CN1CCN(C)C(Cn2cc(C(=O)c3cccc4ccccc34)c3ccccc32)C1 (stereo unspecified) : IC50 beneath 10 nM, strictly?
FALSE
